tested on: PRRSV; test: Inhibitors of PRRSV infection added at various times pre and post infection (Example 7); assay type: cell-based; settings: added 2 or 4 hours after infection
observed property: initial PRRSV infection (initial site of infection)

INSERT INTO results (compound, meas_value) VALUES
  ('CCN(CC)CCCC(C)Nc1ccnc2cc(Cl)ccc12 (centres unmarked) [chloroquine]', 'no effect'),
  ('C=C1[C@@H](C)[C@H]2[C@H](Cc3ccccc3)NC(=O)[C@]23[C@H](OC(C)=O)/C=C/[C@@](C)(O)C(=O)[C@@H](C)C/C=C/[C@H]3[C@@H]1O [cytochalasin D]', 'no effect'),
  ('COC(=O)Nc1nc2ccc(C(=O)c3cccs3)cc2[nH]1 [nocodazole]', 'no effect');
